B1: glmS ribozyme (parent)
chain: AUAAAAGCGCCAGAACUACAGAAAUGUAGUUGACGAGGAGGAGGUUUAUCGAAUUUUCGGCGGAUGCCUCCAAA

Variants of: B1
Experiment: self-cleavage kobs at 10000 uM GlcN6P; higher = faster cleavage; RNA array
Settings: with glucosamine-6-phosphate
This sample holds only a part of the variants without activity.

- mutation_code: "G13C G44C"
  self-cleavage kobs at 10000 uM GlcN6P: "< 1e-05 s⁻¹"
- mutation_code: "U46A U54G"
  self-cleavage kobs at 10000 uM GlcN6P: "0.00205 s⁻¹"
- mutation_code: "U31A A36U"
  self-cleavage kobs at 10000 uM GlcN6P: "< 1e-05 s⁻¹"
- mutation_code: "C11A G40U G41U G60C U65C"
  self-cleavage kobs at 10000 uM GlcN6P: "< 1e-05 s⁻¹"
- mutation_code: "G40C G41A C50U"
  self-cleavage kobs at 10000 uM GlcN6P: "< 1e-05 s⁻¹"
- mutation_code: "U49C U57C"
  self-cleavage kobs at 10000 uM GlcN6P: "< 1e-05 s⁻¹"
- mutation_code: "A12U C34A A39U C70U"
  self-cleavage kobs at 10000 uM GlcN6P: "< 1e-05 s⁻¹"
- mutation_code: "G32U A53G C67G"
  self-cleavage kobs at 10000 uM GlcN6P: "0.000238 s⁻¹"
- mutation_code: "A14U G35C G41A U46A"
  self-cleavage kobs at 10000 uM GlcN6P: "< 1e-05 s⁻¹"
- mutation_code: "G35U G63U G66C C67A"
  self-cleavage kobs at 10000 uM GlcN6P: "< 1e-05 s⁻¹"
- mutation_code: "G63U A64C C67G C70U"
  self-cleavage kobs at 10000 uM GlcN6P: "< 1e-05 s⁻¹"
- mutation_code: "A12G A14C A39C G44U G51U"
  self-cleavage kobs at 10000 uM GlcN6P: "< 1e-05 s⁻¹"
- mutation_code: "A15G U65A C71A"
  self-cleavage kobs at 10000 uM GlcN6P: "0.000965 s⁻¹"
- mutation_code: "A53U C71G"
  self-cleavage kobs at 10000 uM GlcN6P: "0.00158 s⁻¹"
- mutation_code: "U30G G63C A64U"
  self-cleavage kobs at 10000 uM GlcN6P: "< 1e-05 s⁻¹"
- mutation_code: "G7A A39U G43U"
  self-cleavage kobs at 10000 uM GlcN6P: "< 1e-05 s⁻¹"
- mutation_code: "U31G A53U"
  self-cleavage kobs at 10000 uM GlcN6P: "0.0128 s⁻¹"
- mutation_code: "C34U U45G"
  self-cleavage kobs at 10000 uM GlcN6P: "< 1e-05 s⁻¹"
- mutation_code: "C8G A52G"
  self-cleavage kobs at 10000 uM GlcN6P: "< 1e-05 s⁻¹"
- mutation_code: "A12U A14G G29A"
  self-cleavage kobs at 10000 uM GlcN6P: "0.00831 s⁻¹"
- mutation_code: "C10U C11G U57A"
  self-cleavage kobs at 10000 uM GlcN6P: "< 1e-05 s⁻¹"
- mutation_code: "C10A G40C"
  self-cleavage kobs at 10000 uM GlcN6P: "< 1e-05 s⁻¹"
